systemUnderTest: PDE4
assayProcedure: Measurement of PDE4 enzyme inhibiting action
conditionNotes: PDE4 enzyme solution from polymorphonuclear leukocytes of healthy volunteer; 0.2 μM [3H]cAMP, 30° C., 30 minutes; read-out: PDE4 inhibition IC50 value
pIC50: −log10 of the molar value.
measurementName: pIC50

O=c1[nH]ncc2[nH]c(-c3ccc(OC(F)F)c4c3C=CC3(CCCC3)O4)c(Cl)c12 [Example 57]; 7.96

(I) CC(C)OCc1c(-c2ccc(OC(F)F)c(OC3CC3)c2)[nH]c2cn[nH]c(=O)c12 [Example 60]
(II) C#Cc1c(-c2ccc(OC(F)F)c(OC3CC3)c2)[nH]c2cn[nH]c(=O)c12 [Example 16]
(III) CCCCc1c(-c2ccc(OC(F)F)c(OC3CC3)c2)[nH]c2cn[nH]c(=O)c12 [Example 8]
Sort low-to-high on pIC50, please. Show the ranking through the labels, in the order asked for.
II, I, III
